# reported Kd; entries follow
target: T1, HLA-A*0201 loaded with the Carcinoembryonic antigen (CEA)-derived … peptide (biotin on the C-terminal biotinylation tag); assay: Biacore SPR
T1 construct: Soluble, biotinylated, immobilised on a streptavidin chip

Some solved entries appear below for comparison.
[ask] Given SEQ ID NO 98 (receptor, mutated soluble two domain ILT-2) MGHLPKPTLWAEPGSVITQGSPVTLRCQGGQETQEYRLYREKKTAPWITRIPQELVKKGQFPIPSITWEHAGRYRCYYGSDTAGRSESSDPLELVVTGIYQRPTLSAQPSPVVNSGGNVTLQCDSQVAFDGFILCKEGEDEHPQCLNSQPHARGSSRAIFSVGPVSPGRRWWYRCYAYDSNSPYEWSLPSDLLELLVL , respond with its Kd.
[reply] ≤ 1000 nM

[ask] Given SEQ ID NO 42 (receptor, mutated soluble two domain ILT-2) MHLPKPTLWAEPGSVITLQSPLTLRCQGGQETQQYRLYREKKTAPWITRIPQELVKKGQFPIPSITWEHAGRYRCYYGSDTRQWSASSDPLELVVTGVYIKPTLSAQPSPVVNSGGNVTLQCDSQVAFDGFILCKEGEDDHPQCLNSQPHARGSSRAIFSVGPVSPSRRWRYRCYAYDSNSPYEWSLPSDLLELDVDG , respond with its Kd.
[reply] ≤ 1000 nM

Next binder, Kd to be filled in.
[ask] Given SEQ ID NO 123 (receptor, mutated soluble two domain ILT-2; also called Clone 64; c64) MGHLPKPTLWAEPGSVITMDQPVTLRCQGGQETQQYRLYREKKTAPWITRIPQELVKKGQFPIPSITWEHAGRYRCYYGSDTRQWSASSDPLELVVTGVYIKPTLSAQPSPVVNSGGNVTLQCDSQVAFDGFILCKEGEDDHPQCLNSQPHARGSSRAIFSVGPVSPSRRWRYRCYAYDSNSPYEWSLPSDLLELDVDG , respond with its Kd.
[reply] ≤ 1000 nM
